# Test Name: Intrinsic clearance in human liver microsomes at 1 uM measured up to 30 mins in presence of NADPH by LC/MS analysis
# Assay type: ADME, Microsome
# Conditions Used: read-out: CLH (converted)
Quantity: CLint scaled at 1 µM (mL/min/kg)
// note: answer is a bare numeric in mL/min/kg

{"columns": ["Smiles Data", "CLint scaled at 1 µM, mL/min/kg"],
 "data": [
  ["COc1cc(OC)c(F)c(N2Cc3cnc4[nH]ncc4c3N(C)C2=O)c1F", 8.33],
  ["COc1cc(OC)c(F)c(N2Cc3cnc4[nH]ccc4c3N(C3CCN(C)CC3)C2=O)c1F", 13.3],
  ["COc1cc(OC)c(F)c(N2Cc3cnc4[nH]ccc4c3N(CCN3CCN(C)CC3)C2=O)c1F", 15],
  ["CCN1C(=O)N(c2c(F)c(OC)cc(OC)c2F)Cc2cnc3[nH]ncc3c21", 15],
  ["COc1cc(OC)c(F)c(N2Cc3cnc4[nH]ccc4c3N(C)C2=O)c1F", 8.33],
  ["COc1cc(OC)c(F)c(N2Cc3cnc4[nH]ccc4c3N([C@@H]3CCC[C@H]3O)C2=O)c1F", 13.3]
]}

compound `COc1cc(OC)c(F)c(N2Cc3cnc4[nH]ccc4c3N(CCO)C2=O)c1F` , CLint scaled at 1 µM observed: 15

compound `CCN1C(=O)N(c2c(F)c(OC)cc(OC)c2F)Cc2cnc3c(c21)CC(=O)N3` , CLint scaled at 1 µM observed: 10

compound `COc1cc(OC)c(F)c(N2Cc3cnc4[nH]cnc4c3N(C)C2=O)c1F` , CLint scaled at 1 µM observed: 10

###

Reported solubility values for a set of compounds
# Test Name: Solubility of the compound in FaSSIF by HPLC analysis
# Assay type: physicochemical
// note: answer is a bare numeric in µg/mL

{"columns": ["Smiles Data", "Numeric Readout"],
 "data": [
  ["COc1cc(OC)c(F)c(N2Cc3cnc4c(c3N(c3cccc(F)c3F)C2=O)CC(=O)N4)c1F", 77],
  ["COc1cc(OC)c(F)c(N2Cc3cnc4[nH]cc(-c5cnn(C)c5)c4c3N(C)C2=O)c1F", 20],
  ["CCN1C(=O)N(c2c(F)c(OC)cc(OC)c2F)Cc2cnc3[nH]ncc3c21", 3],
  ["COc1cc(OC)c(F)c(N2Cc3cnc4c(c3N(C)C2=O)C2(CC2)C(=O)N4)c1F", 0.3],
  ["COc1cc(OC)c(F)c(N2Cc3cnc4[nH]ncc4c3N(C)C2=O)c1F", 4],
  ["CCN1CCC(Cc2cc3c4c(cnc3[nH]2)CN(c2c(F)c(OC)cc(OC)c2F)C(=O)N4C)CC1", 200]
]}

compound `COc1cc(OC)c(F)c(N2Cc3cnc4c(c3N(c3ccc(C#N)cc3)C2=O)CC(=O)N4)c1F` , solubility observed: 77

compound `CCN1C(=O)N(c2c(F)c(OC)cc(OC)c2F)Cc2cnc3[nH]c(CN4CCOCC4)cc3c21` , solubility observed: 11

compound `COc1cc(OC)c(F)c(N2Cc3cnc4[nH]ccc4c3N(CCN3CCN(C)CC3)C2=O)c1F` , solubility observed: 271

compound `COc1cc(OC)c(F)c(N2Cc3cnc4[nH]ccc4c3N(C3CC3)C2=O)c1F` , solubility observed: 11

compound `CCN1CCN(CCc2cc3c4c(cnc3[nH]2)CN(c2c(F)c(OC)cc(OC)c2F)C(=O)N4C)CC1` , solubility observed: 372

compound `COc1cc(OC)c(F)c(N2Cc3cnc4[nH]cnc4c3N(C)C2=O)c1F` , solubility observed: 21

###

# Test Name: Oral bioavailability in Sprague-Dawley rat at 2 mg/kg administered as cassette dose measured after 24 hrs
# Assay type: ADME, organism-based
# Conditions Used: in vivo
Quantity: bioavailability (%)
// note: answer is a bare numeric in %

# annotated cases, reported bioavailability shown
{"columns": ["Smiles Data", "Value Unit", "Numeric Readout"],
 "data": [
  ["CCN1CCN(Cc2cc3c4c(cnc3[nH]2)CN(c2c(F)c(OC)cc(OC)c2F)C(=O)N4C)CC1", "%", 49],
  ["COc1cc(OC)c(F)c(N2Cc3cnc4[nH]ccc4c3N(C3CCN(C)CC3)C2=O)c1F", "%", 12],
  ["CCN1CCC(Cc2cc3c4c(cnc3[nH]2)CN(c2c(F)c(OC)cc(OC)c2F)C(=O)N4C)CC1", "%", 7]
]}

molecule `COc1cc(OC)c(F)c(N2Cc3cnc4[nH]ccc4c3N(C3CC3)C2=O)c1F` , bioavailability observed: 72

###

# Test Name: Half life in Sprague-Dawley rat at 2 mg/kg, po or 1 mg/kg, iv administered as cassette dose measured after 24 hrs
# Assay type: ADME, organism-based
# Conditions Used: in vivo
Reported half-life values for a set of molecules
// note: answer is a bare numeric in min

# annotated cases, reported half-life shown
{"columns": ["Molecule", "half-life (min)"],
 "data": [
  ["CCN1C(=O)N(c2c(F)c(OC)cc(OC)c2F)Cc2cnc3[nH]ncc3c21", 42],
  ["CCN1CCC(Cc2cc3c4c(cnc3[nH]2)CN(c2c(F)c(OC)cc(OC)c2F)C(=O)N4C)CC1", 42]
]}

API: the following record is the query input.
molecule CCN1C(=O)N(c2c(F)c(OC)cc(OC)c2F)Cc2cnc3[nH]c(CN4CCOCC4)cc3c21 [PEMIGATINIB] , half-life observed: 240

###

# Test Name: Volume of distribution at steady state in Sprague-Dawley rat at 2 mg/kg, po or 1 mg/kg, iv administered as cassette dose measured after 24 hrs
# Format: ADME, organism-based
# Conditions Used: in vivo, read-out: Vdss
Given measured Vd, output Satisfied if it is greater than or equal to 0.6 L/kg and Not satisfied if not.

Known results for compounds:
{"columns": ["Smiles Data", "Class"],
 "data": [
  ["COc1cc(OC)c(F)c(N2Cc3cnc4[nH]ncc4c3N(C)C2=O)c1F", "Satisfied"],
  ["COc1cc(OC)c(F)c(N2Cc3cnc4[nH]ccc4c3N(CCN3CCN(C)CC3)C2=O)c1F", "Satisfied"],
  ["COc1cc(OC)c(F)c(N2Cc3cnc4[nH]c(C(=O)N(C)C)cc4c3N(C)C2=O)c1F", "Not satisfied"],
  ["COc1cc(OC)c(F)c(N2Cc3cnc4[nH]cnc4c3N(C)C2=O)c1F", "Satisfied"]
]}

// switching to the query compound
## Task Hello, I need to know if `COc1cc(OC)c(F)c(N2Cc3cnc4[nH]ccc4c3N(C3CC3)C2=O)c1F` has measured Vd not below 0.6 L/kg. Thanks!
## Result Satisfied

Every entry's value here was drawn from ChEMBL document CHEMBL4808209.
